Recorded values, source paper PMC10786891.

# Assayed System: T1, EsCas13d, nuclease-dead (Eubacterium siraeum, UniProt B0MS50, R295A;H300A;R849A;H854A)
# T1 sequence: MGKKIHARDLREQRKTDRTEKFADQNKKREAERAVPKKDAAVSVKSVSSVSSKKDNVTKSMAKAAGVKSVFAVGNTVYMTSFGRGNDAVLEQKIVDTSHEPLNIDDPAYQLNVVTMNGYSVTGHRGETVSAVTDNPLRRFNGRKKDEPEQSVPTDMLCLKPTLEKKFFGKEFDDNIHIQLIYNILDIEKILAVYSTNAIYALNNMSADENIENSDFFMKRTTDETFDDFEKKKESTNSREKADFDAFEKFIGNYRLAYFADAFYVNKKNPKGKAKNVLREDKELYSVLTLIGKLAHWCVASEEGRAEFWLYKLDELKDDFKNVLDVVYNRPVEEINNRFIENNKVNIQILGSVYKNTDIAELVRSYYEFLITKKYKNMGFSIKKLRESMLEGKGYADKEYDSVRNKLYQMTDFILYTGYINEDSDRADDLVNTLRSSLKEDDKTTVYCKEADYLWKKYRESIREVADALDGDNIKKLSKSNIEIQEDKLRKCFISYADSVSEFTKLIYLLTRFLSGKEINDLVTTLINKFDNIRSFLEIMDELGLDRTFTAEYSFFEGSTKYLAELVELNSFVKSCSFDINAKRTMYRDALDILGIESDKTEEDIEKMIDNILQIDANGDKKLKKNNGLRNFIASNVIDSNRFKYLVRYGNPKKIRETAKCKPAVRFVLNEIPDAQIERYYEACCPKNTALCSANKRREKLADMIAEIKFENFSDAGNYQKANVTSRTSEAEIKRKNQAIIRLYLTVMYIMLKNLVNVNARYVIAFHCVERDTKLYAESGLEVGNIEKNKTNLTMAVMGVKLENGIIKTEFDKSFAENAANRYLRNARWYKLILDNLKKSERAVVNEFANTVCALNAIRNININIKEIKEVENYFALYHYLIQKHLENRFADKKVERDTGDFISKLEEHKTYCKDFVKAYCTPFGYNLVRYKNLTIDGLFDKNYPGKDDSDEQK
# Assay Name: crRNA (strand 1, pre-loaded); Mg2+; 40 mM Tris-HCl pH 7.5, 150 mM NaCl, 6 mM MgCl2, 1 mM DTT, 0.1% Tween-20, 0.2 mg/ml BSA; 25 C; 10 min per concentration, then washed
# Measurement Conditions: tags: His6-TwinStrep-SUMO cleaved; N-terminal SNAP kept (SNAP-Surface 488); label: 3' end held by stalled T7 RNA polymerase
Test Readout: Kd (nM)
Write the number in nM without appending the unit.

Answered examples (5):
Binder | Kd (nM)
target 1 insG 3' of 18,insC 3' of 18 (mixed) RNA 1: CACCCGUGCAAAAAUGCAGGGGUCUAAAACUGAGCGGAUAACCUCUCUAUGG RNA 2: GGGAAUGGAUCCACAUCUACGAAUUCGUACCAUAGCGAGAGGUUAUCCGCUCACCGAGAUCGGAAGAGCACACGU | 30.8
target 2 MT 5'PFS CUU 3'PFS CCG (mixed) RNA 1: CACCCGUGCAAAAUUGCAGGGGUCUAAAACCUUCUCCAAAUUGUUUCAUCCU RNA 2: GGGAAUGGAUCCACAUCUACGAAUUCCUUAGGAUGAAACAAUUUGGAGAAGCCGAGAUCGGAAGAGCACACGU | 6
target 1 insU 3' of 2,insC 3' of 1 (mixed) RNA 1: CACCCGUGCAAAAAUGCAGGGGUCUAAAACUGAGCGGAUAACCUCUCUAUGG RNA 2: GGGAAUGGAUCCACAUCUACGAAUUCGUACCAUAGAGAGGUUAUCCGCUCUACCCGAGAUCGGAAGAGCACACGU | 11.1
target 3 A9G,A18G (mixed) RNA 1: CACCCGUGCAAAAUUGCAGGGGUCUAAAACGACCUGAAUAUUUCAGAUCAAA RNA 2: GGGAAUGGAUCCACAUCUACGAAUUCGUUUUUGGUCUGAAAUGUUCAGGUCUGCAGAUCGGAAGAGCACACGU | 26.4
target 1 C2A,U10C (mixed) RNA 1: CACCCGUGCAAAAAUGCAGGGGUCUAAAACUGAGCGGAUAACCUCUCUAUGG RNA 2: GGGAAUGGAUCCACAUCUACGAAUUCGUACCAUAGAGAGGUCAUCCGCUAACCGAGAUCGGAAGAGCACACGU | 17.8

Fill blank: measured Kd of the binder target 1 MT 5'PFS ACU 3'PFS UUA (mixed) RNA 1: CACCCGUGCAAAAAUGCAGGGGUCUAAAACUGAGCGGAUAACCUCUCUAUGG RNA 2: GGGAAUGGAUCCACAUCUACGAAUUCACUCCAUAGAGAGGUUAUCCGCUCAUUAAGAUCGGAAGAGCACACGU is ____.
52.5

Try this binder next: target 1 del11,del15 (mixed) RNA 1: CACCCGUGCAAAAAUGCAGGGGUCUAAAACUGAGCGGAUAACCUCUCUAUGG RNA 2: GGGAAUGGAUCCACAUCUACGAAUUCGUACCAUAGAAGGUAUCCGCUCACCGAGAUCGGAAGAGCACACGU
35

Try this binder next: target 1 MT 5'PFS UAU 3'PFS CUU (mixed) RNA 1: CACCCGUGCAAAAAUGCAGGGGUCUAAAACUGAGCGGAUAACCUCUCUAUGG RNA 2: GGGAAUGGAUCCACAUCUACGAAUUCUAUCCAUAGAGAGGUUAUCCGCUCACUUAGAUCGGAAGAGCACACGU
39.5

Try this binder next: target 2 MT 5'PFS AGC 3'PFS ACA (mixed) RNA 1: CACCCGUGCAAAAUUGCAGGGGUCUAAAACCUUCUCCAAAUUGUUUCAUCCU RNA 2: GGGAAUGGAUCCACAUCUACGAAUUCAGCAGGAUGAAACAAUUUGGAGAAGACAAGAUCGGAAGAGCACACGU
7.9

Try this binder next: target 3 G3A,A5G (mixed) RNA 1: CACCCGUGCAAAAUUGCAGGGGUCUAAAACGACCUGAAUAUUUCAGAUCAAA RNA 2: GGGAAUGGAUCCACAUCUACGAAUUCGUUUUUGAUCUGAAAUAUUCGGAUCUGCAGAUCGGAAGAGCACACGU
42.5

Try this binder next: target 1 C2U,G13C (mixed) RNA 1: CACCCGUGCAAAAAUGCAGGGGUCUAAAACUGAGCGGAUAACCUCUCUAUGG RNA 2: GGGAAUGGAUCCACAUCUACGAAUUCGUACCAUAGAGACGUUAUCCGCUUACCGAGAUCGGAAGAGCACACGU
44

Try this binder next: target 1 A1C,G5U (mixed) RNA 1: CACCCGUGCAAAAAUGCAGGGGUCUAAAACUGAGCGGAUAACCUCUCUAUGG RNA 2: GGGAAUGGAUCCACAUCUACGAAUUCGUACCAUAGAGAGGUUAUCCUCUCCCCGAGAUCGGAAGAGCACACGU
33

Try this binder next: target 1 complement block 5-11 (mixed) RNA 1: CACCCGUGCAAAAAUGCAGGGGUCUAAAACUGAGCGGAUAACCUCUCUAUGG RNA 2: GGGAAUGGAUCCACAUCUACGAAUUCGUACCAUAGAGAGGAAUAGGCCUCACCGAGAUCGGAAGAGCACACGU
19.2

Try this binder next: target 1 G5C,U8C (mixed) RNA 1: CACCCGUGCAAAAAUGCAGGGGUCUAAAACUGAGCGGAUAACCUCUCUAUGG RNA 2: GGGAAUGGAUCCACAUCUACGAAUUCGUACCAUAGAGAGGUUACCCCCUCACCGAGAUCGGAAGAGCACACGU
6.4

Try this binder next: target 1 insG 3' of 7,insC 3' of 5 (mixed) RNA 1: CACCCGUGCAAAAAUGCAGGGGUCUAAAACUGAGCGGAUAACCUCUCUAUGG RNA 2: GGGAAUGGAUCCACAUCUACGAAUUCGUACCAUAGAGAGGUUAUCGCGCCUCACCGAGAUCGGAAGAGCACACGU
9.8
